- Test system: Mus musculus
- experimentDescription: Acetylcholine writhing inhibitory activity was measured in mouse (in vivo) by iv administration
- Type: functional
I'd appreciate it if you could supply log10(ED50) values for the items below.
Please interpret these as log10 of ED50 where ED50 is in mg/kg.

compound	testedSystem	log10(ED50)
C[C@H](C(=O)O)n1cc(C(=O)c2ccccc2F)c2ccccc21	Mus musculus	0.70
Cc1c(C(=O)c2cccc3ccccc23)c2ccccc2n1CCN1CCOCC1	Mus musculus	-0.72
Cc1c(C(=O)c2cccc3ccccc23)c2ccccc2n1CCN1CCOC(O)C1 (stereo not given)	Mus musculus	0.99

Your task in this section: give log10(ED50) for each listed record.
1. C[C@@H](C(=O)O)n1cc(C(=O)c2ccccc2F)c2ccccc21
2. O=C(c1cccc2ccccc12)c1cn(CCN2CCOCC2)c2ccccc12

1. 1.58
2. -0.92
